- target.entity: Epidermal growth factor receptor (Homo sapiens) (UniProt P00533)
- Sequence (P00533 whole entry, looked up): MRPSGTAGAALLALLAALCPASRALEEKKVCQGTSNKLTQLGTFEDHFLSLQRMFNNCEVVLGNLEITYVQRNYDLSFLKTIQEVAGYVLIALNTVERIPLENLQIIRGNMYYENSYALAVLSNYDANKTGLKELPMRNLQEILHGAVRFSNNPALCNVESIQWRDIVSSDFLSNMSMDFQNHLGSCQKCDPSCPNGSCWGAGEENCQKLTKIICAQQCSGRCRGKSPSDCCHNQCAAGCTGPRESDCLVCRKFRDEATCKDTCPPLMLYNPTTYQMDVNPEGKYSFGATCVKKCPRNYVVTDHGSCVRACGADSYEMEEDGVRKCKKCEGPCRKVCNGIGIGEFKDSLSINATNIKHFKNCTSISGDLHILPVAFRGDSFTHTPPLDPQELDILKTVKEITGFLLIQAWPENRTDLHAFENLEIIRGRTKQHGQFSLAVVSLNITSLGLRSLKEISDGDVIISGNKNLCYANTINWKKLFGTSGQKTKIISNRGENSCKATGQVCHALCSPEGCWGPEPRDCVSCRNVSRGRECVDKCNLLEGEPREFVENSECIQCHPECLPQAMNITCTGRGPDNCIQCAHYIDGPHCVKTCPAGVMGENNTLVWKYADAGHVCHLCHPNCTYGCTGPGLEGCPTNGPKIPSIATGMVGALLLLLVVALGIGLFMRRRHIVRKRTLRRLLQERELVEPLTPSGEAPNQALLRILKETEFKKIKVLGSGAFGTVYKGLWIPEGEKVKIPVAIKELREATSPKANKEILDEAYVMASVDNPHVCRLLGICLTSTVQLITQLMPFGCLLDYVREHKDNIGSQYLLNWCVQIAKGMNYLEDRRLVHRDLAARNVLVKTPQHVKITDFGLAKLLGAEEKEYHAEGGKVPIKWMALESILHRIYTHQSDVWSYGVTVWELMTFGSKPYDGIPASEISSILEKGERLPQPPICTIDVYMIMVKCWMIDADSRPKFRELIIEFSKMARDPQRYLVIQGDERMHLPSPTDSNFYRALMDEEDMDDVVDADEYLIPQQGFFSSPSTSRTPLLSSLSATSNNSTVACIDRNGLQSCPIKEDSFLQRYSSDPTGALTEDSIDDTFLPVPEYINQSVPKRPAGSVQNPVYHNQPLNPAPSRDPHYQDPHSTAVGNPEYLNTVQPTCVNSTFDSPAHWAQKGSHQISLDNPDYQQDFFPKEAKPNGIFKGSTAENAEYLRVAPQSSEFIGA
- assay.method.text: EGFR binders on small-molecule microarrays, primary screen, biochemical, small-molecule microarray, 635 nm fluorescence (AID 1104);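 further: score merges 667 nm emission intensity with spot signal to noise over triplicate slides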
- test.conditions: EGFR binding, higher = more signal

compound | composite z-score
CC(C)[Si](C#C[Si](C(C)C)(C(C)C)C(C)C)(O[C@H](C)c1cn([C@H](C)c2ccccc2)nn1)C(C)C | 0.292
CCOC(=O)C[C@H]1[C@H](OC(=O)c2ccc(-c3ccccc3)cc2)[C@@H](NC(=O)C2CCCCC2)c2cc(OCCCO)ccc2N1C(=O)c1ccc2ccccc2n1 | 0.0502
CC(C)(C)OC(=O)CC[C@@]1(C(=O)N2CCOCC2)N=C(c2ccc(OCCCO)cc2)O[C@@H]1c1ccccc1 | -0.384
C=C(COC)C(=O)CC[C@@H](OC(=O)c1ccccc1-c1ccccc1C(=O)O)c1cccc(OCCO)c1 | -0.837
COC(=O)C1=CC(CCCO)=CC(C2CC2)N(Cc2cc3c(cc2Br)OCO3)C=C1C(=O)OC (centres undefined) | -0.482
C=C(CCCC)/C(=C/C[C@@H](OC(=O)c1ccncc1)c1ccc(OCCO)cc1)c1cnc2ccccc2c1 | 1.15
CC(C)(C)OC(=O)CC[C@@]1(C(=O)NCc2ccccc2)N=C(c2ccc(OCCCO)cc2)O[C@@H]1c1ccccc1CN=[N+]=[N-] | 0.0887
CC(C)(C)OC(=O)CC[C@@]12N=C(c3ccc(OCCCO)cc3)O[C@@H]1c1ccccc1CN(Cc1ccccc1)C2=O | 0.12
COC(=O)C1=CC(c2ccc(CO)cc2)=CC(C2CC2)N(C)C=C1C(=O)OC (centres undefined) | -0.125

Each recorded value in this set is attributed to PubChem BioAssay.
